Parameter 'readout' = Kd; parameter 'system' = PIK3CD (Homo sapiens).
Sequence (O00329 whole entry): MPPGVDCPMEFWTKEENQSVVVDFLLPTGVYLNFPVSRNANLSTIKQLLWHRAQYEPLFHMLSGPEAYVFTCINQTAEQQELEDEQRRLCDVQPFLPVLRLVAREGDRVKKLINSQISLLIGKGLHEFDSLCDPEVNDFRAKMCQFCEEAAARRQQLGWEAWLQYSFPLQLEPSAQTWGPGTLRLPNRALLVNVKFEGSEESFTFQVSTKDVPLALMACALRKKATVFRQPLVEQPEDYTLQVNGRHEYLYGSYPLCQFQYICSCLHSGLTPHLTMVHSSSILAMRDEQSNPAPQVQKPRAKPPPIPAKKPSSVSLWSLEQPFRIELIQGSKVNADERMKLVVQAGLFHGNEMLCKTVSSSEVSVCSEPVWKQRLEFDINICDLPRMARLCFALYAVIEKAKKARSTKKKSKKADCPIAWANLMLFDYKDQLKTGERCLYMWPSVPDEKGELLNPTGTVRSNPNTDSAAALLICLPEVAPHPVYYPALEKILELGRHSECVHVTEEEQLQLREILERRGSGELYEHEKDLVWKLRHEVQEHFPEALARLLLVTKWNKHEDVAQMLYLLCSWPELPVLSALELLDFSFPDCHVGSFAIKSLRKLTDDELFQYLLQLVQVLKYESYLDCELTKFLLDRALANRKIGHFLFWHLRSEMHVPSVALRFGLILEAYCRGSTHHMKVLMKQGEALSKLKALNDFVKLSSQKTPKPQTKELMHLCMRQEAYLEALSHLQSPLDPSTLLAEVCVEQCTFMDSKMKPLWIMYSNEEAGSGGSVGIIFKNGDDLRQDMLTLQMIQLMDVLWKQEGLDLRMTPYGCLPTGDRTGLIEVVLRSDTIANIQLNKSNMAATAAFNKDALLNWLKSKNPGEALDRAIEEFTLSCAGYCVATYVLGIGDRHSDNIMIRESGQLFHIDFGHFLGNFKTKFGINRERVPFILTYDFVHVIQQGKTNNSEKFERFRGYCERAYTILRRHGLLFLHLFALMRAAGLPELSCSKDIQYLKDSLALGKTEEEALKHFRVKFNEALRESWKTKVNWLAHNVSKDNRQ
Use nM as the unit, but write only the number.

Below, each entry is followed by its recorded Kd result.
>>> val("C[C@H](Nc1nc(N)nc(N)c1C#N)c1cc2cccc(Cl)c2c(=O)n1-c1cc(F)cc(F)c1")
0.12
>>> val("C[C@H](Nc1nc(N)nc(N)c1C#N)c1cc2cccc(Cl)c2c(=O)n1-c1ccccc1")
0.14
>>> val("C[C@H](Nc1nc(N)nc(N)c1C#N)c1cc2cccc(Cl)c2c(=O)n1-c1cccc(F)c1")
0.11

Kindly review the next compound as well.
Return Kd (reported value) for this compound: [2H]c1c([2H])c([2H])c(-n2c([C@H](C)Nc3nc(N)nc(N)c3C#N)cc3cccc(Cl)c3c2=O)c([2H])c1[2H] 0.12
